Every entry's value here was drawn from ChEMBL document CHEMBL3853327.

assay: Cmax in Sprague-Dawley rat plasma at 8 mg/kg administered through oral gavage measured at 5 mins to 24 hrs post dosing by LC/MS analysis; type: ADME, organism-based; set-up: dose 8 mg/kg, route oral; conditions: in vivo
measure: Cmax (ng/mL)

[[record]]
record_smiles = "Cc1cc(C#N)cc(C)c1Oc1nc(NC2CCN(Cc3ccc(S(N)(=O)=O)cc3)CC2)nc2ccsc12"
units_text = "ng/mL"
result_value = 415


###

assay: Selectivity index, ratio of CC50 for human mock-infected MT4 cells to EC50 for wild type HIV1 3B harboring reverse transcriptase infected in human MT4 cells; type: toxicity, cell-based; details: MT4 cells (mock-infected for CC50, HIV-1 infected for EC50)
measure: selectivity ratio

[[record]]
compound = "CC(C)Nc1cccnc1N1CCN(C(=O)c2cc3cc(NS(C)(=O)=O)ccc3[nH]2)CC1 [DELAVIRDINE]"
measure = "selectivity ratio"
result_value = "> 67"

[[record]]
compound = "Cc1cc(C#N)cc(C)c1Oc1nc(NC2CCN(Cc3ccc(C#N)cc3)CC2)nc2ccsc12"
measure = "selectivity ratio"
result_value = 914

[[record]]
compound = "Cc1cc(C#N)cc(C)c1Oc1nc(NC2CCN(Cc3ccc(C(N)=O)cc3)CC2)nc2ccsc12"
measure = "selectivity ratio"
result_value = 66900

[[record]]
compound = "Cc1cn([C@H]2C[C@H](N=[N+]=[N-])[C@@H](CO)O2)c(=O)[nH]c1=O [ZIDOVUDINE]"
measure = "selectivity ratio"
result_value = "> 13100"

[[record]]
compound = "Cc1cc(C)c(Oc2nc(NC3CCN(Cc4cccc(C(N)=O)c4)CC3)nc3ccsc23)c(C)c1"
measure = "selectivity ratio"
result_value = 531

[[record]]
compound = "Cc1cc(C)c(Oc2nc(NC3CCN(Cc4cccc(C#N)c4)CC3)nc3ccsc23)c(C)c1"
measure = "selectivity ratio"
result_value = 819

[[record]]
compound = "Cc1cc(C#N)cc(C)c1Oc1nc(NC2CCN(Cc3cccc(C#N)c3)CC2)nc2ccsc12"
measure = "selectivity ratio"
result_value = 1090

[[record]]
compound = "Cc1cc(C#N)cc(C)c1Oc1nc(NC2CCN(Cc3ccc(Br)cc3)CC2)nc2ccsc12"
measure = "selectivity ratio"
result_value = 916

[[record]]
compound = "COC(=O)c1ccc(CN2CCC(Nc3nc(Oc4c(C)cc(C)cc4C)c4sccc4n3)CC2)cc1"
measure = "selectivity ratio"
result_value = 1610


###

system: Human immunodeficiency virus 1; test: Antiviral activity against HIV1 3B harboring reverse transcriptase K103N mutant infected in human MT4 cells assessed as protection against virus induced cytotoxicity after 5 days by MTT assay; type: functional, cell-based; conditions: Human immunodeficiency virus 1, 3B, MT4, 120 h
measure: EC50 (nM)

[[record]]
record_smiles = "Cc1cc(C)c(Oc2nc(NC3CCN(Cc4ccc(F)cc4F)CC3)nc3ccsc23)c(C)c1"
measure = "EC50"
result_value = 163

[[record]]
record_smiles = "CC(=O)NS(=O)(=O)c1ccc(CN2CCC(Nc3nc(Oc4c(C)cc(C#N)cc4C)c4sccc4n3)CC2)cc1"
measure = "EC50"
result_value = 8.2

[[record]]
record_smiles = "Cc1cc(C)c(Oc2nc(NC3CCN(Cc4cccc(C(N)=O)c4)CC3)nc3ccsc23)c(C)c1"
measure = "EC50"
result_value = 93.8

[[record]]
record_smiles = "Cc1cc(C#N)cc(C)c1Oc1nc(NC2CCN(Cc3ccc(S(C)(=O)=O)cc3)CC2)nc2ccsc12"
measure = "EC50"
result_value = 12

[[record]]
record_smiles = "Cc1cc(C)c(Oc2nc(NC3CCN(Cc4ccc(F)cc4)CC3)nc3ccsc23)c(C)c1"
measure = "EC50"
result_value = 91.8


###

experiment: Selectivity index, ratio of CC50 for human mock-infected MT4 cells to EC50 for HIV1 3B harboring reverse transcriptase E138K mutant infected in human MT4 cells; format: toxicity, cell-based; details: MT4 cells (mock-infected for CC50, HIV-1 infected for EC50)
Classification field. Basis: selectivity ratio. Definitions: low end = under 100, middle = from 100 up to 700, high end = 700 and over

[[record]]
record_smiles = "Cc1cc(C#N)cc(C)c1Oc1nc(NC2CCN(Cc3ccc(C(N)=O)cc3)CC2)nc2ccsc12"
label = "high end"

[[record]]
record_smiles = "CNS(=O)(=O)c1ccc(CN2CCC(Nc3nc(Oc4c(C)cc(C#N)cc4C)c4sccc4n3)CC2)cc1"
label = "middle"

[[record]]
record_smiles = "Cc1cc(C#N)cc(C)c1Oc1nc(NC2CCN(Cc3ccc(S(C)(=O)=O)cc3)CC2)nc2ccsc12"
label = "middle"

[[record]]
record_smiles = "Cc1cc(C)c(Oc2nc(NC3CCN(Cc4ccc(S(C)(=O)=O)cc4)CC3)nc3ccsc23)c(C)c1"
label = "middle"

[[record]]
record_smiles = "Cc1cc(C)c(Oc2nc(NC3CCN(Cc4ccncc4)CC3)nc3ccsc23)c(C)c1"
label = "middle"

[[record]]
record_smiles = "Cc1cc(C)c(Oc2nc(NC3CCN(Cc4ccc(F)cc4)CC3)nc3ccsc23)c(C)c1"
label = "low end"

[[record]]
record_smiles = "Cc1cc(C)c(Oc2nc(NC3CCN(Cc4cccc(F)c4)CC3)nc3ccsc23)c(C)c1"
label = "middle"

[[record]]
record_smiles = "Cc1cc(C)c(Oc2nc(NC3CCN(Cc4ccc(S(N)(=O)=O)cc4)CC3)nc3ccsc23)c(C)c1"
label = "low end"

[[record]]
record_smiles = "Cc1cc(C#N)cc(C)c1Oc1nc(NC2CCN(Cc3ccc(F)cc3)CC2)nc2ccsc12"
label = "high end"


###

experiment: Selectivity index, ratio of CC50 for human mock-infected MT4 cells to EC50 for HIV1 3B harboring reverse transcriptase Y181C mutant infected in human MT4 cells; type: toxicity, cell-based; settings: MT4 cells (mock-infected for CC50, HIV-1 infected for EC50)
measure: selectivity ratio

[[record]]
record_smiles = "Cc1cc(C#N)cc(C)c1Oc1nc(NC2CCN(Cc3cccc(C(N)=O)c3)CC2)nc2ccsc12"
relational_operator = ">"
result_value = 984

[[record]]
record_smiles = "Cc1cc(C#N)cc(C)c1Oc1nc(NC2CCN(Cc3ccc(S(C)(=O)=O)cc3)CC2)nc2ccsc12"
relational_operator = "="
result_value = 622

[[record]]
record_smiles = "Cc1cc(C)c(Oc2nc(NC3CCN(Cc4ccc(S(N)(=O)=O)cc4)CC3)nc3ccsc23)c(C)c1"
relational_operator = "="
result_value = 3

[[record]]
record_smiles = "Cc1cc(C#N)cc(C)c1Oc1nc(NC2CCN(Cc3cccc(S(N)(=O)=O)c3)CC2)nc2ccsc12"
relational_operator = ">"
result_value = 10900

[[record]]
record_smiles = "COC(=O)c1ccc(CN2CCC(Nc3nc(Oc4c(C)cc(C)cc4C)c4sccc4n3)CC2)cc1"
relational_operator = "="
result_value = 154

[[record]]
record_smiles = "CC(=O)NS(=O)(=O)c1ccc(CN2CCC(Nc3nc(Oc4c(C)cc(C#N)cc4C)c4sccc4n3)CC2)cc1"
relational_operator = ">"
result_value = 104

[[record]]
record_smiles = "Cc1cc(C)c(Oc2nc(NC3CCN(Cc4ccncc4)CC3)nc3ccsc23)c(C)c1"
relational_operator = "="
result_value = 230

[[record]]
record_smiles = "Cc1cc(C)c(Oc2nc(NC3CCN(Cc4ccc(F)cc4)CC3)nc3ccsc23)c(C)c1"
relational_operator = "="
result_value = 66

[[record]]
record_smiles = "Cc1cc(C#N)cc(C)c1Oc1nc(NC2CCN(Cc3ccc(NS(C)(=O)=O)cc3)CC2)nc2ccsc12"
relational_operator = "="
result_value = 9890

[[record]]
record_smiles = "Cc1cc(C)c(Oc2nc(NC3CCN(Cc4cccc(F)c4)CC3)nc3ccsc23)c(C)c1"
relational_operator = "="
result_value = 98

[[record]]
record_smiles = "Cc1cc(C#N)cc(C)c1Oc1nc(NC2CCN(Cc3ccc(F)cc3)CC2)nc2ccsc12"
relational_operator = "="
result_value = 3740

[[record]]
record_smiles = "Cc1cc(C#N)cc(C)c1Oc1nc(NC2CCN(Cc3ccncc3)CC2)nc2ccsc12"
relational_operator = "="
result_value = 483

[[record]]
record_smiles = "Cc1cc(C)c(Oc2nc(NC3CCN(Cc4cccc(C#N)c4)CC3)nc3ccsc23)c(C)c1"
relational_operator = "="
result_value = 89

[[record]]
record_smiles = "Cc1cn([C@H]2C[C@H](N=[N+]=[N-])[C@@H](CO)O2)c(=O)[nH]c1=O"
relational_operator = ">"
result_value = 1120

[[record]]
record_smiles = "Cc1cc(C)c(Oc2nc(NC3CCN(Cc4ccc(F)cc4F)CC3)nc3ccsc23)c(C)c1"
relational_operator = "="
result_value = 21

[[record]]
record_smiles = "Cc1cc(C)c(Oc2nc(NC3CCN(Cc4cccc(C(N)=O)c4)CC3)nc3ccsc23)c(C)c1"
relational_operator = "="
result_value = 41

[[record]]
record_smiles = "CCOC(=O)c1ccc(CN2CCC(Nc3nc(Oc4c(C)cc(C#N)cc4C)c4sccc4n3)CC2)cc1"
relational_operator = ">"
result_value = 62

[[record]]
record_smiles = "Cc1cc(C)c(Oc2nc(NC3CCN(Cc4ccc(S(C)(=O)=O)cc4)CC3)nc3ccsc23)c(C)c1"
relational_operator = "="
result_value = 118

